Reported self-cleavage values for the following variants.
B1: CPEB3 Ribozyme (parent)
chain: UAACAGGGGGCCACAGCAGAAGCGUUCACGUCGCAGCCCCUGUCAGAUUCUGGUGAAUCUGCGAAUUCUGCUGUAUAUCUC

Variants of: B1
PROTOCOL_TEXT: self-cleavage, relative activity (ratio to wild type); higher = more cleavage; in vitro, sequencing
Hey, just send me the number, nothing else.

Some solved entries appear below for comparison.
UAACAGGGGGGCACAGCAGAAGCGUUCACGUCGCAGCCCCUGUCAGAUUCUGGUGAAUCUGCGAAUUCUGCUGUAUAGCUC [C11G U78G]	0.59
UACCAGGGGGCCACAGCAGAAGCGUUCGCGUCGCAGCCCCUGUCAGAUUCUGGUGAAUCUGCGAAUUCUGCUGUAUAUCUC [A3C A28G]	1.09
UAACAGGGGGCCACAGCAGAAGCGUUCACGUCGCAGCCCCUGUCAGAUACUGGUGAAUCUCCGAAUUCUGCUGUAUAUCUC [U49A G61C]	0.19
UAACAGGGGGCCACAGCUGAAGCGUUCACGUCGCAGCCCCUGUCAGAUUCUGGUGAAUUUGCGAAUUCUGCUGUAUAUCUC [A18U C59U]	0.23

[Q] Sample UAACAGGGGGCCACAGCAGAAGCGUCCACGUCGCAGCCCCUGUCAGAUUCUGGUGAAUCUGCGAAUUCUGCUGUAUAACUC [U26C U78A] — what was its self-cleavage?
[A] 0.51

[Q] Sample UAACAGGGGGCCACAGCAGAAGCGUUCACGUCACAGCCCCUGUCAGAUUCCGGUGAAUCUGCGAAUUCUGCUGUAUAUCUC [G33A U51C] — what was its self-cleavage?
[A] 0.37

[Q] Sample UAACAGGGGGCCACAGCAGAGGCGUUCACGUCGCAGCCCCUGUCAGAUUCUGGUGAAUCUGCGAAUUCUGCUGAAUAUCUC [A21G U74A] — what was its self-cleavage?
[A] 1.03

[Q] Sample UAACAGGGGGCCACAGCAGAAGCGUUCAAGUCGCAGCCCCUGUCAGAUUCUGGUGAAUCUGCGAAUCCUGCUGUAUAUCUC [C29A U67C] — what was its self-cleavage?
[A] 0.11

[Q] Sample UAACAGGGGGCCACAGCAGAAGCGUUCACGUCGCAGCCCCUGUCUGAUUCUGGUGUAUCUGCGAAUUCUGCUGUAUAUCUC [A45U A56U] — what was its self-cleavage?
[A] 0.23
